Kp reference
# measurementDescription: PET imaging studies in rhesus monkeys
# conditionContext: rhesus monkey, in vivo, Distribution volume (VT), Temporal cortex; 1T model
Enter the number alone.

Recorded Kp, per entry:
* Cc1cnccc1CN1CC(c2cc(F)cc(F)c2)CC1=O (stereo not drawn) [^18F-5] | 37.9
* Cc1cnccc1CN1CC(c2cccc(F)c2)CC1=O (stereo not drawn) [^18F-11] | 14.7

Write down Kp measured for item O=C1CC(c2cc(F)c(F)c(F)c2)CN1Cc1ccncc1F (stereo not drawn) [^18F-10]
14

###

# measurementDescription: PET imaging studies in rhesus monkeys
# conditionContext: rhesus monkey, in vivo, Distribution volume (VT), Nucleus accumbens; 1T model
Some compounds, each annotated with its measured Kp.
Enter the number alone.

Name the recorded Kp of the compound listed here: Cc1cnccc1CN1CC(c2cc(F)cc(F)c2)CC1=O (stereo not drawn) [^18F-5]
41.9

For the compound Cc1cnccc1CN1CC(c2cccc(F)c2)CC1=O (stereo not drawn) [^18F-11] , report Kp.
16.4

In one line, give reported Kp of the entry O=C1CC(c2cc(F)c(F)c(F)c2)CN1Cc1ccncc1F (stereo not drawn) [^18F-10] .
14.4

###

The entries below come with measured Kp values attached.
# measurementDescription: PET imaging studies in rhesus monkeys
# conditionContext: rhesus monkey, in vivo, Distribution volume (VT), Caudate nucleus; 1T model
Write no unit; give the number alone.

Known results for molecules:
• O=C1CC(c2cc(F)c(F)c(F)c2)CN1Cc1ccncc1F (stereo not drawn) [^18F-10] = 13.8
• Cc1cnccc1CN1CC(c2cc(F)cc(F)c2)CC1=O (stereo not drawn) [^18F-5] = 31.9

// moving on: another record for Kp
Please report the measured Kp for Cc1cnccc1CN1CC(c2cccc(F)c2)CC1=O (stereo not drawn) [^18F-11]
13.2

###

# systemTested: SV2A (Rattus norvegicus (Rat))
# Sequence (Q02563 whole entry): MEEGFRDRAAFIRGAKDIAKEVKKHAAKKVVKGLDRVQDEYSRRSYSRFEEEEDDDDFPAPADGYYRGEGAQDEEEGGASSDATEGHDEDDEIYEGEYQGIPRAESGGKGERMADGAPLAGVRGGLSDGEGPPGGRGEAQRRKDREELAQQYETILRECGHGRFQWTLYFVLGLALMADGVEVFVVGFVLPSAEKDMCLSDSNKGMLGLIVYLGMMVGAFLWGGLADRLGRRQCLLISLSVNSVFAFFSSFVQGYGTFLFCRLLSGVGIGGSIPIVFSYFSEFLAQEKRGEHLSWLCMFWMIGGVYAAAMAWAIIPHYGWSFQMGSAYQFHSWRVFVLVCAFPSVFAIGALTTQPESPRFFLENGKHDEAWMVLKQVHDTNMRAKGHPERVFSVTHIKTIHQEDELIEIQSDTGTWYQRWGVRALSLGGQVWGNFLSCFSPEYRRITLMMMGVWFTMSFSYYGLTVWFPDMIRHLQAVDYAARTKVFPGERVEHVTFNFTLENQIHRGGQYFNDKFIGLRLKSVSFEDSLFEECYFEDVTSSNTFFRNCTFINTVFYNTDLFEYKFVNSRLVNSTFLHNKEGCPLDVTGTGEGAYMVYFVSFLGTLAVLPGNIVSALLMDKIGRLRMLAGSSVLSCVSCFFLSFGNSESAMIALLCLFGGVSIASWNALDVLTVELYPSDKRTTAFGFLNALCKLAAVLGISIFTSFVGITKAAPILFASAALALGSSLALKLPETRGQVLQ
# conditionContext: Ki, converted from IC50 by the Cheng-Prusoff equation
# key: entry, value: Ki
Supply the numeric figure in nM, leaving out any unit text.

Some solved cases for reference:
• Cc1cnccc1CN1CC(c2cccc(F)c2)CC1=O (single isomer, unassigned) [(R)-11] = 4.44
• Cc1cnccc1CN1CC(c2cc(F)c(F)c(F)c2)CC1=O (single isomer, unassigned) [(R)-3] = 0.27

Now take the following molecule into account.
Fill in Ki for Cc1cnccc1CN1CC(c2cccc(F)c2)CC1=O (single isomer, unassigned) [(S)-11] tested with SV2A (Rattus norvegicus (Rat)).
18.2

###

# measurementDescription: PET imaging studies in rhesus monkeys
# conditionContext: rhesus monkey, in vivo, Distribution volume (VT), Insular cortex; 1T model
parameter: Kp
Respond using a number only.

* O=C1CC(c2cc(F)c(F)c(F)c2)CN1Cc1ccncc1F (stereo not drawn) [^18F-10] | 14.9
* Cc1cnccc1CN1CC(c2cc(F)cc(F)c2)CC1=O (stereo not drawn) [^18F-5] | 42.3

Continue with the compound presented below.
Supply recorded Kp for Cc1cnccc1CN1CC(c2cccc(F)c2)CC1=O (stereo not drawn) [^18F-11] here.
16.8

###

# Kp listing for each entry below
# measurementDescription: PET imaging studies in rhesus monkeys
# conditionContext: rhesus monkey, in vivo, Distribution volume (VT), Cerebellum; 1T model
Output: the number by itself.

Supply measured Kp of Cc1cnccc1CN1CC(c2cc(F)cc(F)c2)CC1=O (stereo not drawn) [^18F-5] in your reply.
26.1

Quote Kp reported for Cc1cnccc1CN1CC(c2cccc(F)c2)CC1=O (stereo not drawn) [^18F-11] please.
10.8

Consider the molecule O=C1CC(c2cc(F)c(F)c(F)c2)CN1Cc1ccncc1F (stereo not drawn) [^18F-10] and give its recorded Kp.
12.3
